Reference source: PubChem BioAssay (Tox21)

# Procedure details: A CellTox Green Cytotoxicity Assay to monitor cytotoxicity in HEK293 cells - 32 hour (AID 1224881); note: nearly all actives have a fitted effect of over 40% in size
# Measurement conditions: CellTox Green fluorescence; series mostly up to 76.8 µM
Records with an inconclusive call do not appear. Activity calls are given as the source filed them. Calls come from the whole dose curve; as a rule, active = well fitted activation curve with a large enough effect in the repeat runs; inconclusive = weak or mixed curves; inactive = flat fitted curve, though single readings scatter.
Answer with one of the outcomes class 1 for active, class 0 for inactive

Examples with answers:
[
  {
    "Molecule": "CCCCNC(=O)OCC#CI",
    "Answer label": "class 1"
  },
  {
    "Molecule": "O=C(O)CCCOc1ccc(Cl)cc1Cl",
    "Answer label": "class 0"
  },
  {
    "Molecule": "COC1=CC(=O)O[C@@H](/C=C/c2ccc3c(c2)OCO3)C1",
    "Answer label": "class 0"
  },
  {
    "Molecule": "Cc1nc2ccccc2c(=O)n1-c1ccccc1Cl",
    "Answer label": "class 0"
  },
  {
    "Molecule": "O=C(N/N=C/c1ccc([N+](=O)[O-])o1)c1cc([N+](=O)[O-])cc([N+](=O)[O-])c1O",
    "Answer label": "class 0"
  },
  {
    "Molecule": "C=CC(=O)NC(C)(C)CC(C)=O",
    "Answer label": "class 0"
  },
  {
    "Molecule": "CCOC(C(=O)OCCN(C)C)(c1ccccc1)c1ccccc1",
    "Answer label": "class 0"
  },
  {
    "Molecule": "Nc1ccccc1C(=O)OCC(O)CO (centres undefined)",
    "Answer label": "class 0"
  },
  {
    "Molecule": "CC(=O)NNc1ccccc1",
    "Answer label": "class 0"
  },
  {
    "Molecule": "Nc1cc(Cl)cc(C(=O)O)c1Cl",
    "Answer label": "class 0"
  }
]

From here, focus on the item given below.
Hi, sorry to bother you, what did the test record for CCCCCl ?
class 0
